target: 5HT2C receptors (Homo sapiens, UniProt P28335); test: Human 5-HT2C functional assay in 1321N1 cells (intracellular calcium, FLIPR); assay type: cell-based; set-up: expressed in transfected cells; host or cells: 1321N1 cells; conditions: 5-HT2c agonist activity, maximum calcium response
Sequence (P28335 33-458): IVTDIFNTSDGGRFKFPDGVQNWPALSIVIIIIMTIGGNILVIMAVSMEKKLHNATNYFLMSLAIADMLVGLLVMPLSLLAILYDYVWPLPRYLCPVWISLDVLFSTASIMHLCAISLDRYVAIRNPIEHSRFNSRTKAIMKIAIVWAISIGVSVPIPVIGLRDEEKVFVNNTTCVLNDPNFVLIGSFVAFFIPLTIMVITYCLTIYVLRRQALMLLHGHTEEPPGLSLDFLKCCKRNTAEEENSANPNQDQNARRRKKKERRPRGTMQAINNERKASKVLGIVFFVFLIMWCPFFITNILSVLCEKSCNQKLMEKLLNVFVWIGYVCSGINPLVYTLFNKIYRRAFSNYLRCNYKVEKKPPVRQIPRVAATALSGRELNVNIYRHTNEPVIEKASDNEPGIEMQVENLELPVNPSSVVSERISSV

MOLECULE: O=S(=O)(c1cccc(Cl)c1Cl)N1Cc2ccccc2[C@@H]2CN(Cc3ccccc3)C[C@H]2C1 (relative stereo) [Example 9]
UNITS: nM
RELATION SYMBOL: >
EC50: 10000

MOLECULE: O=S(=O)(c1cccc(Cl)c1)N1Cc2ccccc2[C@@H]2CN(Cc3ccccc3)C[C@H]2C1 (relative stereo) [Example 20]
UNITS: nM
RELATION SYMBOL: >
EC50: 10000

MOLECULE: O=C1NC[C@@H]2CN(Cc3ccccc3)C[C@H]2c2ccccc21 (racemic) [Example 1]
UNITS: nM
RELATION SYMBOL: =
EC50: 11.2

MOLECULE: O=C1NC[C@@H]2CN(Cc3ccccc3F)C[C@H]2c2ccccc21 (relative stereo) [Example 35]
UNITS: nM
RELATION SYMBOL: =
EC50: 12.3

MOLECULE: Cc1cccc(CN2C[C@H]3CNC(=O)c4ccccc4[C@@H]3C2)c1 (relative stereo) [Example 26]
UNITS: nM
RELATION SYMBOL: =
EC50: 10.3

MOLECULE: O=C1NC[C@@H]2CNC[C@H]2c2cc(Cl)ccc21 (relative stereo) [Example 52]
UNITS: nM
RELATION SYMBOL: =
EC50: 158

MOLECULE: O=C1NC[C@@H]2CN(Cc3ccccc3)C[C@H]2c2ccc(F)cc21 (relative stereo) [Example 55]
UNITS: nM
RELATION SYMBOL: =
EC50: 10.6

MOLECULE: O=C1NC[C@@H]2CN(Cc3cccc(F)c3)C[C@@H]2c2ccccc21 (relative stereo) [Example 42]
UNITS: nM
RELATION SYMBOL: =
EC50: 18.1

MOLECULE: O=C1NC[C@@H]2CNC[C@H]2c2c(F)cccc21 (relative stereo) [Example 67]
UNITS: nM
RELATION SYMBOL: =
EC50: 6.55

MOLECULE: CN1C[C@H]2CN(S(=O)(=O)c3ccccc3)Cc3ccccc3[C@H]2C1 (relative stereo) [Example 72]
UNITS: nM
RELATION SYMBOL: =
EC50: 51.9

MOLECULE: O=S(=O)(c1cccc(C(F)(F)F)c1)N1Cc2ccccc2[C@@H]2CN(Cc3ccccc3)C[C@H]2C1 (relative stereo) [Example 16]
UNITS: nM
RELATION SYMBOL: >
EC50: 10000

* * *

molecular target: 5HT2B receptors (Homo sapiens, UniProt P41595); construct: expressed in transfected cells; host or cells: CHO-K1 cells; assay: Human 5-HT2B functional high throughput screening assay in CHO-K1 cells (calcium flux); assay type: cell-based; details: CHO-K1
Sequence (P41595 whole entry): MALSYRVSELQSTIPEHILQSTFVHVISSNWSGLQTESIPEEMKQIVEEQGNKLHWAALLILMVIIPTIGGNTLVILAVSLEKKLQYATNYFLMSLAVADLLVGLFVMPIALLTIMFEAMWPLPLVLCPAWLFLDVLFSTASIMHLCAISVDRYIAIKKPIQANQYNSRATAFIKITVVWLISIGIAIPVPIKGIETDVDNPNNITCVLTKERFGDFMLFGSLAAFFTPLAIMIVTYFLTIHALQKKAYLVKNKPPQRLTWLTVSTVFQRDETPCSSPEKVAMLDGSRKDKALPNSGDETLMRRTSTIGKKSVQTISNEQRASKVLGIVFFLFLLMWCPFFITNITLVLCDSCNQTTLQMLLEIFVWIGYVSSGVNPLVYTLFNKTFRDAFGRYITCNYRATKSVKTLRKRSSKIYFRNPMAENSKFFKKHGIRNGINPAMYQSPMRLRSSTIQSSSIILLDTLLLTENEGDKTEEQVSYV

MOLECULE: COc1ccc2c(c1)OCC[C@H]1CNC[C@H]21 (relative stereo)
TESTED SYSTEM: 5HT2B receptors (Homo sapiens, UniProt P41595)
Emax: 60%
//
MOLECULE: Cc1ccc2c(c1)[C@H]1CNC[C@@H]1CCO2 (relative stereo)
TESTED SYSTEM: 5HT2B receptors (Homo sapiens, UniProt P41595)
Emax: 35%
//
MOLECULE: O=C1NC[C@H]2CNC[C@@H]2c2ccccc21
TESTED SYSTEM: 5HT2B receptors (Homo sapiens, UniProt P41595)
Emax: 100%
//
MOLECULE: Fc1ccc2c(c1)[C@H]1CNC[C@@H]1CCO2 (relative stereo)
TESTED SYSTEM: 5HT2B receptors (Homo sapiens, UniProt P41595)
Emax: 60%
//
MOLECULE: O=C1NC[C@@H]2CNC[C@H]2c2ccc(OCc3cccc(F)c3)cc21 (relative stereo)
TESTED SYSTEM: 5HT2B receptors (Homo sapiens, UniProt P41595)
Emax: 15%
//
MOLECULE: O=S1(=O)NC[C@@H]2CNC[C@H]2c2ccccc21 (relative stereo)
TESTED SYSTEM: 5HT2B receptors (Homo sapiens, UniProt P41595)
Emax: 20%
